system name: beta-arrestin 1 (UniProt P49407)
Sequence (P49407 whole entry): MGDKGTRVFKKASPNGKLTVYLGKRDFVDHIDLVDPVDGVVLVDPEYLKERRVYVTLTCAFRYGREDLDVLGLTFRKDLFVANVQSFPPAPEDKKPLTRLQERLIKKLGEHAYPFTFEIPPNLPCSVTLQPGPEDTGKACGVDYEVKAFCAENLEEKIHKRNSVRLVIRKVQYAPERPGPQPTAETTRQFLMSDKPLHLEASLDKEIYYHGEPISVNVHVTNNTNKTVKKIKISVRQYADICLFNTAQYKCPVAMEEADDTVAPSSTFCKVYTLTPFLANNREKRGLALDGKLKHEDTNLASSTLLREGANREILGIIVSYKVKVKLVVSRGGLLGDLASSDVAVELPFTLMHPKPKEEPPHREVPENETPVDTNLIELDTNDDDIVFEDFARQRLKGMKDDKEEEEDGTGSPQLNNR
assay conditions: 2'-F pyrimidines (2'F-C, 2'F-U); Kd assay buffer not stated separately; selection buffer F: 20 mM HEPES pH 7.4, 150 mM NaCl, 1 mM CaCl2, 1 mM MgCl2, 0.01% BSA, 37 C
assay metric: pKd
Expect pKd as a plain number equal to -log10 of the molar concentration.

Query (sequence): GGGAGGACGAUGCGGAUUCCGUUAAGUAUCGCGUUAAACGCUAUGCGGACGCGUCAGACGACUCGCUGAGGAUCCGAGA [beta-arr2A1] ; field requested: pKd 6.02

Query: pKd; subject: GGGAGGACGAUGCGGAUCCUCGUCCCGUCACGGCAGAACCACGUCAGGCCUUCAACAGACGACUCGCUGAGGAUCCGAGA [beta-arr2A3] 6.13

// pKd lookup, key: GGGAGGACGAUGCGGCCAGGUGUAGACAGACGUGAGAGAUUGACCUGGCAGCAGCCAGACGACUCGCUGAGGAUCCGAGA [beta-arr2A2] 5.67
